Values were extracted from PubChem BioAssay.

# protocol.notes: OD615 S. cerevisiae growth inhibition, permissive medium, pilot counter-assay, permissive growth control for S. cerevisiae lifespan shortening project (AID 705)
# assay.conditions: OD615, 24 h, at 10 µM, hits give high values
Reported values of growth inhibition for individual entries
Report the value in % with no unit label.

Some compounds with recorded growth inhibition:
{"compound": "CCc1ccc2nc(NC3=NCN(CCOC)CN3)nc(C)c2c1", "growth inhibition (%)": -2.2}
{"compound": "COc1ccc(C2CC(=O)C3=C(C2)NC(C)=C(C#N)C3c2ccc(N(C)C)cc2)cc1 (stereo not given)", "growth inhibition (%)": -6.35}
{"compound": "COc1ccc2[nH]c(C)c(CCN3C(=O)C4C5C=CC(C5)C4C3=O)c2c1 (stereo not given)", "growth inhibition (%)": -3.19}
{"compound": "C=CCNc1nc2c(c(=O)n(C)c(=O)n2C)n1CC", "growth inhibition (%)": 1.76}

Consider now this further compound.
(Q) Supply recorded growth inhibition for `Cc1cc(OCC(=O)C(C)(C)C)c2c(C)c(C)c(=O)oc2c1` here.
(A) -18.8
